System: A2780 ovarian carcinoma cell lines
Assay: Cell proliferation evaluation (cell counting) on A2780
Assay type: cell-based
Settings: A2780, 4 days (96 h) treatment
value.type: IC50 (nM)
Express the result in nM but write the number alone.

Entry N.N.[Cl][Pt][Cl] [Cisplatin, cisplatin] : reported IC50 = ?
300

* * *

Tested on: IC5 cervical cancerous cell line
Test: Cell proliferation evaluation on IC5
Assay type: cell-based
Settings: IC5, 4 days treatment
Description: Cell culture. The A2780 ovarian carcinoma cell lines were purchased from ECACC (Salisbury, UK) and were grown in complete RPMI medium supplemented with 10% fetal calf serum, in the presence of penicillin, streptomycin. The resistance of A2780/DDP cells to cisplatin was maintained by monthly treatment with 1 μM cisplatin for 4 days. […] Cell proliferation evaluation. […] Cellular growth was quantified using the Moxi Z Mini automated cell counter (Orflox technology). […]
value.type: IC50 (nM)
Express the result in nM but write the number alone.

GET /values?readout=IC50&system=IC5 cervical cancerous cell line&item= N.N.[Cl][Pt][Cl] [Cisplatin, cisplatin]
490
